systemUnderTest: Tyrosyl-tRNA synthetase, putative (Trypanosoma cruzi (strain CL Brener)) (UniProt Q4DSP6)
Sequence (whole entry): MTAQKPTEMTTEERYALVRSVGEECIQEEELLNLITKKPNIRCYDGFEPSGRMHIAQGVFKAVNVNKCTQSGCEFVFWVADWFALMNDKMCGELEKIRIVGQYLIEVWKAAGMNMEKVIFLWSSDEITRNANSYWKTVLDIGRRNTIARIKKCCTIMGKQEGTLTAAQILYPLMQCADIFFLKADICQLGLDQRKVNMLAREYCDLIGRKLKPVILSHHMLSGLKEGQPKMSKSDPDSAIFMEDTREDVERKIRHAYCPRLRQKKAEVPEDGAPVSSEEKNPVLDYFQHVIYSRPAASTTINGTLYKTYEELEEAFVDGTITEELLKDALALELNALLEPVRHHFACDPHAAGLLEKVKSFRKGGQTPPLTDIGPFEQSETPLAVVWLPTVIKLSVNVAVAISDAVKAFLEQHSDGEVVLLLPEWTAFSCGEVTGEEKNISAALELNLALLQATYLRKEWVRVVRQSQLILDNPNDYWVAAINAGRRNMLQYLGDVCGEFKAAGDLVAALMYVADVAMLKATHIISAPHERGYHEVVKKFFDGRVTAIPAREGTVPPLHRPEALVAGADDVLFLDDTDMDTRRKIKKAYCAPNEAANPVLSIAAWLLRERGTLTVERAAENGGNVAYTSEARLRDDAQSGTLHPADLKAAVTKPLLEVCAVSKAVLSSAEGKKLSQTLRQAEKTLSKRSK
testDescription: Trypanosoma cruzi tyrosyl tRNA synthetase (TcYRS) _High Tyrosine SOP
Format: functional
Parameters: scale not given: in the data most compounds retested in dose-response had high values
conditionParameters: 30 µM
Entries and their Percent Effect values follow.
Form entry: value (%) — number only.

GET /value?item= "Cc1cccc(-n2cc(C(=O)N3CCn4c(C)nnc4C3)nn2)c1" &field=Percent Effect returns 3.12
